Readings of pIC50 for the listed compounds
- System: 616215-338-R-J1-PDC tumor spheroids, viability
- experiment-notes: Anticancer human tumor 616215-338-R-J1-PDC patient-derived colon adenocarcinoma cell line growth inhibition [GQUAD]
- experimental-context: curve of first compound; second compound 1 µM; spheroids with HUVEC and MSC
pIC50 (log units): -log10 of the concentration in mol/L.

Recorded pIC50 for Cc1[nH]c2ccccc2c1CCNCc1ccc(/C=C/C(=O)NO)cc1 + Cc1[nH]c2ccc(F)cc2c1-c1nc2c3cccnc3c3ncccc3c2[nH]1 with 616215-338-R-J1-PDC tumor spheroids, viability, please?
6.88

Recorded pIC50 for CC[C@@]1(O)C(=O)OCc2c1cc1n(c2=O)Cc2cc3c(CN(C)C)c(O)ccc3nc2-1 + CN(C)c1ccc(Nc2c3ccc(NC(=O)CCN4CCCC4)cc3nc3cc(NC(=O)CCN4CCCC4)ccc23)cc1 with 616215-338-R-J1-PDC tumor spheroids, viability, please?
6.57

Recorded pIC50 for CC1COCCN1c1cc(C2(O)CC3CCC(C2)O3)c2cnn(-c3ccn[nH]3)c2n1 (stereo not given) + Cc1[nH]c2ccc(F)cc2c1-c1nc2c3cccnc3c3ncccc3c2[nH]1 with 616215-338-R-J1-PDC tumor spheroids, viability, please?
6.65

Recorded pIC50 for C#Cc1c(F)ccc2cc(O)cc(-c3ncc4c(N5CC6CCC(C5)N6)nc(OCC56CCCN5CC(F)C6)nc4c3F)c12 (stereo not given) + CN(C)c1ccc(Nc2c3ccc(NC(=O)CCN4CCCC4)cc3nc3cc(NC(=O)CCN4CCCC4)ccc23)cc1 with 616215-338-R-J1-PDC tumor spheroids, viability, please?
5.04

Recorded pIC50 for CC1COCCN1c1cc(C2(S(C)(=N)=O)CC2)nc(-c2ccnc3[nH]ccc23)n1 (stereo not given) + Cc1[nH]c2ccc(F)cc2c1-c1nc2c3cccnc3c3ncccc3c2[nH]1 with 616215-338-R-J1-PDC tumor spheroids, viability, please?
5.15

====

Readings of pIC50 for the listed compounds
- Tested on: 616215-338-R-J1-PDC tumor spheroids, viability
- experiment-notes: Anticancer human tumor 616215-338-R-J1-PDC cell line growth inhibition [GQUAD];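 also: spheroids exposed to agents for 7 days before readout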
- experimental-context: curve of first compound; second compound 10 µM; spheroids with HUVEC and MSC
pIC50 (log units): -log10 of the concentration in mol/L.

Recorded pIC50, per entry:
{"compound": "CC1COCCN1c1cc(-c2ccnn2C)c2ccnc(-c3ccn[nH]3)c2n1 (stereo not drawn) + CN(C)c1ccc(Nc2c3ccc(NC(=O)CCN4CCCC4)cc3nc3cc(NC(=O)CCN4CCCC4)ccc23)cc1", "test-result": 6.89}
{"compound": "Cc1[nH]c2ccccc2c1CCNCc1ccc(/C=C/C(=O)NO)cc1 + Cc1[nH]c2ccc(F)cc2c1-c1nc2c3cccnc3c3ncccc3c2[nH]1", "test-result": 6.90}

Shifting focus to the compound that follows.
Fill in: pIC50 of CC[C@@]1(O)C(=O)OCc2c1cc1n(c2=O)Cc2cc3c(CN(C)C)c(O)ccc3nc2-1 + CN(C)c1ccc(Nc2c3ccc(NC(=O)CCN4CCCC4)cc3nc3cc(NC(=O)CCN4CCCC4)ccc23)cc1 is ___
6.74

====

- System: 616215-338-R-J1-PDC tumor spheroids, viability
- experiment-notes: Anticancer human tumor 616215-338-R-J1-PDC cell line growth inhibition [GQUAD];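 also: spheroids exposed to agents for 7 days before readout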
- experimental-context: curve of first compound; second compound 3.16 µM; spheroids with HUVEC and MSC
result-type: pIC50
pIC50 (log units): -log10 of the concentration in mol/L.

Recorded pIC50, per entry:
{"compound": "COc1cc(C2c3cc4c(cc3C(OC3OC5COC(C)OC5C(O)C3O)C3COC(=O)C23)OCO4)cc(OC)c1O (configuration not stated) + Cc1[nH]c2ccc(F)cc2c1-c1nc2c3cccnc3c3ncccc3c2[nH]1", "test-result": 6.27}
{"compound": "CC1COCCN1c1cc(C2(O)CC3CCC(C2)O3)c2cnn(-c3ccn[nH]3)c2n1 (configuration not stated) + CN(C)c1ccc(Nc2c3ccc(NC(=O)CCN4CCCC4)cc3nc3cc(NC(=O)CCN4CCCC4)ccc23)cc1", "test-result": 6.65}

Fill in: pIC50 of COc1ccc([C@@H](O)c2cc(-c3ncnc4cc(N5CCOCC5)ccc34)c(F)cc2Cl)nn1 + CN(C)c1ccc(Nc2c3ccc(NC(=O)CCN4CCCC4)cc3nc3cc(NC(=O)CCN4CCCC4)ccc23)cc1 is ___
5.22

====

- Test system: 616215-338-R-J1-PDC tumor spheroids, viability
- experiment-notes: Anticancer human tumor 616215-338-R-J1-PDC cell line growth inhibition [GQUAD];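 also: spheroids exposed to agents for 7 days before readout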;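 as to viability, T/C: percent viability relative to DMSO vehicle control wells taken as 100%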
- experimental-context: second compound 10 µM; first compound 3.16 µM; stronger effect = lower value; spheroids with HUVEC and MSC
Returns: string. Value is Criterion met if measured viability, T/C is below 60%, and Criterion not met if it is greater than or equal to it.

Use these answered entries as a reference point.
{"compound": "CC(C)n1c(=O)n(C)c2cnc3cc(F)c(-c4ccc(OCCCN5CCCCC5)nc4)cc3c21 + Cc1[nH]c2ccc(F)cc2c1-c1nc2c3cccnc3c3ncccc3c2[nH]1", "group-label": "Criterion not met"}
{"compound": "O=c1[nH]cc(F)c(=O)[nH]1 + CN(C)c1ccc(Nc2c3ccc(NC(=O)CCN4CCCC4)cc3nc3cc(NC(=O)CCN4CCCC4)ccc23)cc1", "group-label": "Criterion met"}
{"compound": "COc1ccc([C@@H](O)c2cc(-c3ncnc4cc(N5CCOCC5)ccc34)c(F)cc2Cl)nn1 + Cc1[nH]c2ccc(F)cc2c1-c1nc2c3cccnc3c3ncccc3c2[nH]1", "group-label": "Criterion not met"}
{"compound": "CC1COCCN1c1cc(C2(O)CC3CCC(C2)O3)c2cnn(-c3ccn[nH]3)c2n1 (stereo unspecified) + Cc1[nH]c2ccc(F)cc2c1-c1nc2c3cccnc3c3ncccc3c2[nH]1", "group-label": "Criterion met"}

We next turn to a different compound, shown below.
Lab note: confirm whether the reported viability, T/C for this compound is below 60%, equality not counting. compound: CC(C)n1c(=O)n(C)c2cnc3cc(F)c(-c4ccc(OCCCN5CCCCC5)nc4)cc3c21 + Cc1cnc(CNC(=O)c2c(=O)c3ccc(N4CCCN(C)CC4)nc3n3c2sc2ccccc23)cn1
Criterion met

====

- Test system: 616215-338-R-J1-PDC tumor spheroids, viability
- experiment-notes: Anticancer human tumor 616215-338-R-J1-PDC cell line growth inhibition [GQUAD];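 also: spheroids exposed to agents for 7 days before readout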;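 as to viability, T/C: percent viability relative to DMSO vehicle control wells taken as 100%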
- experimental-context: second compound 1 µM; first compound 0.00316 µM; stronger effect = lower value; spheroids with HUVEC and MSC
- Text: DNA G-quadruplex Stabilizer Agents in Combinations in Complex Spheroids A high-throughput screen of multi-cell type tumor spheroids was designed to identify active combinations of DNA G-quadruplex stabilizer agents and targeted small molecules. […] Compounds. […] If the clinical Cmax for an agent had not been determined, the highest concentration tested was 10 microM. […]
Returns: string. Value is criterion met if measured viability, T/C is below 90%, and criterion not met if it is greater than or equal to it.

Use these answered entries as a reference point.
{"compound": "Cn1ncnc1[C@H]1c2n[nH]c(=O)c3cc(F)cc(c23)N[C@@H]1c1ccc(F)cc1 + Cc1[nH]c2ccc(F)cc2c1-c1nc2c3cccnc3c3ncccc3c2[nH]1", "group-label": "criterion not met"}
{"compound": "Cn1ncnc1[C@H]1c2n[nH]c(=O)c3cc(F)cc(c23)N[C@@H]1c1ccc(F)cc1 + Cc1cnc(CNC(=O)c2c(=O)c3ccc(N4CCCN(C)CC4)nc3n3c2sc2ccccc23)cn1", "group-label": "criterion met"}
{"compound": "CC[C@@]1(O)C(=O)OCc2c1cc1n(c2=O)Cc2cc3c(CN(C)C)c(O)ccc3nc2-1 + CN(C)c1ccc(Nc2c3ccc(NC(=O)CCN4CCCC4)cc3nc3cc(NC(=O)CCN4CCCC4)ccc23)cc1", "group-label": "criterion not met"}
{"compound": "Cc1[nH]c2ccccc2c1CCNCc1ccc(/C=C/C(=O)NO)cc1 + Cc1cnc(CNC(=O)c2c(=O)c3ccc(N4CCCN(C)CC4)nc3n3c2sc2ccccc23)cn1", "group-label": "criterion met"}
{"compound": "CC[C@@]1(O)C(=O)OCc2c1cc1n(c2=O)Cc2cc3c(CN(C)C)c(O)ccc3nc2-1 + Cc1[nH]c2ccc(F)cc2c1-c1nc2c3cccnc3c3ncccc3c2[nH]1", "group-label": "criterion not met"}
{"compound": "CCc1c2c(nc3ccc(O)cc13)-c1cc3c(c(=O)n1C2)COC(=O)[C@]3(O)CC + Cc1cnc(CNC(=O)c2c(=O)c3ccc(N4CCCN(C)CC4)nc3n3c2sc2ccccc23)cn1", "group-label": "criterion met"}

Lab note: confirm whether the reported viability, T/C for this compound is below 90%, equality not counting. compound: CC[C@@]1(O)C(=O)OCc2c1cc1n(c2=O)Cc2cc3c(CN(C)C)c(O)ccc3nc2-1 + Cc1cnc(CNC(=O)c2c(=O)c3ccc(N4CCCN(C)CC4)nc3n3c2sc2ccccc23)cn1
criterion met
